Origin of measurements: PubChem BioAssay AID1159580

# experimental_details: chemical genetic growth profiling, strain panel (AID 1159580);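 further: tested at 20 µM; growth read once vehicle control cultures reached saturation at 30 °C; lower values mean less growth of the strain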
# protocol_conditions: S. cerevisiae deletion strains, growth OD, locus YLR039C, strain RIC1
About 2,000 (36%) of roughly 5,500 compounds were called active. About 18% were inconclusive and are not listed. No stated cut-off is given here; in the data, active means normalized growth mostly below about 0.91 (no sharp cut-off); inconclusive means no clear call, values can overlap the other calls; inactive means mostly above about 0.92. The list shows a part of the results.
# valid calls are yes (active), no (inactive); nothing else

Which outcome was assigned to CC(N)CCCC(C)(C)O (stereo not given) in this test?
no

Which outcome was assigned to `CN(C)CC/C=C1\c2ccccc2Sc2ccc(Cl)cc21` in this test?
yes

Which outcome was assigned to `CCOC(=O)CCC(=O)O[C@H]1[C@H](O[C@@H]2[C@@H](C)[C@H](O[C@H]3C[C@@](C)(OC)[C@@H](O)[C@H](C)O3)[C@@H](C)C(=O)O[C@H](CC)[C@@](C)(O)[C@H](O)[C@@H](C)C(=O)[C@H](C)C[C@@]2(C)O)O[C@H](C)C[C@@H]1N(C)C` in this test?
no

Which outcome was assigned to Cc1cccc(C)c1OCC(C)N (stereo not given) in this test?
no

Which outcome was assigned to CCCCCCCCNC(C)C(O)c1ccc(SC(C)C)cc1 (stereo not given) in this test?
yes

Which outcome was assigned to `NC(=O)c1ccc[n+]([C@@H]2O[C@H](COP(=O)([O-])OP(=O)(O)OC[C@H]3O[C@@H](n4cnc5c(N)ncnc54)[C@H](O)[C@@H]3O)[C@@H](O)[C@H]2O)c1` in this test?
no

Which outcome was assigned to CC(C[N+](C)(C)C)OC(N)=O (stereo not given) in this test?
no

Which outcome was assigned to `COc1ccc(OC)c(S(=O)(=O)Oc2ccc(C#N)cc2)c1` in this test?
no

Which outcome was assigned to `CCCS(=O)(=O)c1c(C)c(C)n(Cc2ccccc2)c1N` in this test?
no

Which outcome was assigned to CC(NCCc1ccc(O)cc1)C(O)c1ccc(O)cc1 (stereo not given) in this test?
no
